So I've got a bunch of molecules here, and I need their Mammalian Cytotoxicity IC50 values.
All answers are understood in µg/mL, so give the number only.

Recall the recorded Mammalian Cytotoxicity IC50 for Cl.Cl.Cl.Cl.Cl.Cl.Cl.NCCCSC[C@H]1O[C@@H]2O[C@H]3[C@H](O)[C@@H](O)[C@@H](O[C@H]4[C@H](O)[C@@H](O)[C@@H](O[C@H]5[C@H](O)[C@@H](O)[C@@H](O[C@H]6[C@H](O)[C@@H](O)[C@@H](O[C@H]7[C@H](O)[C@@H](O)[C@@H](O[C@H]8[C@H](O)[C@@H](O)[C@@H](O[C@H]1[C@H](O)[C@H]2O)O[C@@H]8CSCCCN)O[C@@H]7CSCCCN)O[C@@H]6CSCCCN)O[C@@H]5CSCCCN)O[C@@H]4CSCCCN)O[C@@H]3CSCCCN with Lungs cancer cells A549 and state it.
191

Param readout = Mammalian Cytotoxicity IC50; param system = Lungs cancer cells A549; param query = I.I.I.I.I.I.I.N=C(N)SCC1OC2OC3C(CSC(=N)N)OC(OC4C(CSC(=N)N)OC(OC5C(CSC(=N)N)OC(OC6C(CSC(=N)N)OC(OC7C(CSC(=N)N)OC(OC8C(CSC(=N)N)OC(OC1C(O)C2O)C(O)C8O)C(O)C7O)C(O)C6O)C(O)C5O)C(O)C4O)C(O)C3O (stereo not shown) ; response: value
480

Item: Cl.Cl.Cl.Cl.Cl.Cl.NCCCCSCC1OC2OC3C(CSCCCCN)OC(OC4C(CSCCCCN)OC(OC5C(CSCCCCN)OC(OC6C(CSCCCCN)OC(OC7C(CSCCCCN)OC(OC1C(O)C2O)C(O)C7O)C(O)C6O)C(O)C5O)C(O)C4O)C(O)C3O (stereo not shown) Test system: Lungs cancer cells A549 Read-out: Mammalian Cytotoxicity IC50 Value: ?
589

// fetch Lungs cancer cells A549 Mammalian Cytotoxicity IC50 for Cl.Cl.Cl.Cl.Cl.Cl.Cl.NCCCCSC[C@H]1O[C@@H]2O[C@H]3[C@H](O)[C@@H](O)[C@@H](O[C@H]4[C@H](O)[C@@H](O)[C@@H](O[C@H]5[C@H](O)[C@@H](O)[C@@H](O[C@H]6[C@H](O)[C@@H](O)[C@@H](O[C@H]7[C@H](O)[C@@H](O)[C@@H](O[C@H]8[C@H](O)[C@@H](O)[C@@H](O[C@H]1[C@H](O)[C@H]2O)O[C@@H]8CSCCCCN)O[C@@H]7CSCCCCN)O[C@@H]6CSCCCCN)O[C@@H]5CSCCCCN)O[C@@H]4CSCCCCN)O[C@@H]3CSCCCCN
198

---

Kindly supply the reported Mammalian Cytotoxicity IC50 values for the records listed here.

Which measured Mammalian Cytotoxicity IC50 belongs to Cl.Cl.Cl.Cl.Cl.Cl.Cl.Cl.Cl.Cl.Cl.Cl.Cl.Cl.NCCCC(N)C(=O)NCC1OC2OC3C(CNC(=O)C(N)CCCN)OC(OC4C(CNC(=O)C(N)CCCN)OC(OC5C(CNC(=O)C(N)CCCN)OC(OC6C(CNC(=O)C(N)CCCN)OC(OC7C(CNC(=O)C(N)CCCN)OC(OC8C(CNC(=O)C(N)CCCN)OC(OC1C(O)C2O)C(O)C8O)C(O)C7O)C(O)C6O)C(O)C5O)C(O)C4O)C(O)C3O (centres unmarked) , tested on Lungs cancer cells A549?
860 µg/mL

Short answer please: Mammalian Cytotoxicity IC50, Lungs cancer cells A549, entry Cl.Cl.Cl.Cl.Cl.Cl.Cl.NCc1ccccc1CSCC1OC2OC3C(CSCc4ccccc4CN)OC(OC4C(CSCc5ccccc5CN)OC(OC5C(CSCc6ccccc6CN)OC(OC6C(CSCc7ccccc7CN)OC(OC7C(CSCc8ccccc8CN)OC(OC8C(CSCc9ccccc9CN)OC(OC1C(O)C2O)C(O)C8O)C(O)C7O)C(O)C6O)C(O)C5O)C(O)C4O)C(O)C3O (centres unmarked)
193.5 µg/mL

Look up Mammalian Cytotoxicity IC50 with Lungs cancer cells A549 for this compound: Cl.Cl.Cl.Cl.Cl.Cl.Cl.NCCSC[C@H]1O[C@@H]2O[C@H]3[C@H](O)[C@@H](O)[C@@H](O[C@H]4[C@H](O)[C@@H](O)[C@@H](O[C@H]5[C@H](O)[C@@H](O)[C@@H](O[C@H]6[C@H](O)[C@@H](O)[C@@H](O[C@H]7[C@H](O)[C@@H](O)[C@@H](O[C@H]8[C@H](O)[C@@H](O)[C@@H](O[C@H]1[C@H](O)[C@H]2O)O[C@@H]8CSCCN)O[C@@H]7CSCCN)O[C@@H]6CSCCN)O[C@@H]5CSCCN)O[C@@H]4CSCCN)O[C@@H]3CSCCN
829 µg/mL

Query for Lungs cancer cells A549: what Mammalian Cytotoxicity IC50 does the record show for O=C(NCC1OC2OC3C(CNC(=O)C4CCCN4)OC(OC4C(CNC(=O)C5CCCN5)OC(OC5C(CNC(=O)C6CCCN6)OC(OC6C(CNC(=O)C7CCCN7)OC(OC7C(CNC(=O)C8CCCN8)OC(OC8C(CNC(=O)C9CCCN9)OC(OC1C(O)C2O)C(O)C8O)C(O)C7O)C(O)C6O)C(O)C5O)C(O)C4O)C(O)C3O)C1CCCN1.O=C(O)C(F)(F)F.O=C(O)C(F)(F)F.O=C(O)C(F)(F)F.O=C(O)C(F)(F)F.O=C(O)C(F)(F)F.O=C(O)C(F)(F)F.O=C(O)C(F)(F)F (centres unmarked) ?
524 µg/mL

# get_value(readout= Mammalian Cytotoxicity IC50, system= Lungs cancer cells A549) for Cl.Cl.Cl.Cl.Cl.Cl.Cl.NCCCCCCSC[C@H]1O[C@@H]2O[C@H]3[C@H](O)[C@@H](O)[C@@H](O[C@H]4[C@H](O)[C@@H](O)[C@@H](O[C@H]5[C@H](O)[C@@H](O)[C@@H](O[C@H]6[C@H](O)[C@@H](O)[C@@H](O[C@H]7[C@H](O)[C@@H](O)[C@@H](O[C@H]8[C@H](O)[C@@H](O)[C@@H](O[C@H]1[C@H](O)[C@H]2O)O[C@@H]8CSCCCCCCN)O[C@@H]7CSCCCCCCN)O[C@@H]6CSCCCCCCN)O[C@@H]5CSCCCCCCN)O[C@@H]4CSCCCCCCN)O[C@@H]3CSCCCCCCN
321 µg/mL
